Could you please report measured MEC for the items listed next?
Molecular target: recombinant guanylate cyclase reporter cell line (Rattus norvegicus, UniProt P19686+P20595)
Construct: expressed in transfected cells
Sequence (P19686 whole entry): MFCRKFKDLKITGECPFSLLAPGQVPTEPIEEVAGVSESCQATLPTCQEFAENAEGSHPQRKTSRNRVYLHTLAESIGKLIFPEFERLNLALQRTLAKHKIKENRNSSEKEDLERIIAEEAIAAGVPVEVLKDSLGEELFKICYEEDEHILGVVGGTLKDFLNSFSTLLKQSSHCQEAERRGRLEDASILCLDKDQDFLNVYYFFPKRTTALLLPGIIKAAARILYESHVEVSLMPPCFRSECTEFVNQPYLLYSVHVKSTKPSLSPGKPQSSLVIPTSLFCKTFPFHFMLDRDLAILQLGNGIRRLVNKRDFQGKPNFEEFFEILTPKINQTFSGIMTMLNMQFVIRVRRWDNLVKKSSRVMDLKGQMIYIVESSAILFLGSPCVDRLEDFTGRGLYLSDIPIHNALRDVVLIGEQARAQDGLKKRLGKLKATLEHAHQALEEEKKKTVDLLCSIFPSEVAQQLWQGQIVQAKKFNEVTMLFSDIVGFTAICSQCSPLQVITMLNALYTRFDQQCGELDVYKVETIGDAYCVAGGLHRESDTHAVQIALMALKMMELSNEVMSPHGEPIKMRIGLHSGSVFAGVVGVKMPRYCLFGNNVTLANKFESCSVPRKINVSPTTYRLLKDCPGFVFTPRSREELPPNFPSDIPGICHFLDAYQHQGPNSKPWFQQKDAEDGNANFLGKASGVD
Sequence (P20595 whole entry): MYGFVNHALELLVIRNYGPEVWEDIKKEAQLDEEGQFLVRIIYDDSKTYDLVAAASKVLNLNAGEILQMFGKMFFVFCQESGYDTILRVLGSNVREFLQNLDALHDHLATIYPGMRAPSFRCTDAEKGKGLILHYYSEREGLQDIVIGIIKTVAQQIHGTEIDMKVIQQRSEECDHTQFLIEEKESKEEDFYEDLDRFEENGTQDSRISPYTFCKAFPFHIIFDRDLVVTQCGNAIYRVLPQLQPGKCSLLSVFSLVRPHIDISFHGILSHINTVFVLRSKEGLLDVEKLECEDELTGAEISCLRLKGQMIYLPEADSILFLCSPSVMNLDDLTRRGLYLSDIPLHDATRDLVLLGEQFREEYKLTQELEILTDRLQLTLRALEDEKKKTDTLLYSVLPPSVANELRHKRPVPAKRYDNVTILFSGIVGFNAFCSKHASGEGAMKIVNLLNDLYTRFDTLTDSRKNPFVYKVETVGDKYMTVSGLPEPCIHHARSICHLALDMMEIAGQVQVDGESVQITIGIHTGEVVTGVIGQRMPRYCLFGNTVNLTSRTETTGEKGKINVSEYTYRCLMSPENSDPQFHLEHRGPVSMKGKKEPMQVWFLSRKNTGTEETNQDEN
Assay: Effect on a recombinant guanylate cyclase reporter cell line (B-2)
Format: cell-based
Conditions: MEC = minimum effective concentration, in some cases mean values for individual determinations
Procedure: B-2. Effect on a Recombinant Guanylate Cyclase Reporter Cell Line The cellular activity of the compounds according to the invention is determined using a recombinant guanylate cyclase reporter cell line, as described in F. Wunder et al., Anal. Biochem. 339, 104-112 (2005). Representative MEC values (MEC=minimum effective concentration) for the compounds of the invention are shown in Table 1 below (in some cases as mean values for individual determinations): […]
Structures can show the parent of a compound that is named as a salt.
Give bare numbers, in µM.

Please review the following examples before continuing.
Query: # query: MEC of entry Cc1nc2c(OCc3c(F)ccc(F)c3F)cccn2c1-c1ncc2c(n1)NC(=O)C2(C)C [Example 75, formate]
Result: 10

Query: # query: MEC of entry Cc1nc2c(OCc3c(F)cccc3F)cccn2c1-c1nc2c(c(C(=O)O)n1)C(C)(C)C(=O)N2
Result: 10

Query: # query: MEC of entry Cc1nc2c(OCc3c(F)cccc3F)cccn2c1-c1nc2c(c(OCCO)n1)C(C)(C)C(=O)N2
Result: 0.3

Next:
Query: # query: MEC of entry Cc1nc2c(OCc3c(F)cccc3F)cccn2c1-c1nc2c(c(C(=O)NC3CC3)n1)C(C)(C)C(=O)N2
Result: 0.3
